- target-of-assay: A1 receptor (Rattus norvegicus)
- Construct: using a membrane preparation of whole rat brain; from tissue; host or cells: whole rat brain membranes
- Sequence (P25099 1-326): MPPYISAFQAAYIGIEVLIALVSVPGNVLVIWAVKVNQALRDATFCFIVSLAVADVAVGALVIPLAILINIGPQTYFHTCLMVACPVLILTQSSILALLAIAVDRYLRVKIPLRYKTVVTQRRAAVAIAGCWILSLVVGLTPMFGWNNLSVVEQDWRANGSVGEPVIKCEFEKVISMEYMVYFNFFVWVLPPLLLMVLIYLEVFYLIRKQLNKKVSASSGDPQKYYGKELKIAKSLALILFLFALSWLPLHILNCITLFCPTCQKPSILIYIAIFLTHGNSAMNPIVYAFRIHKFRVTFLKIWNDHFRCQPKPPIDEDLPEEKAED
- test-method-notes: A1 adenosine receptor binding, displacement of 3H-CHA, whole rat brain membranes
- run-conditions: 3H-CHA displacement, 25° C., 60 minutes
Entries whose IC50 is below 20 nM take satisfied; entries at or above 20 nM take not satisfied.

Examples from the recorded data:
| compound | target-of-assay | class-assignment |
| --- | --- | --- |
| Cc1ncsc1CCNc1ncnc2c1ncn2[C@@H]1O[C@H](CO)[C@@H](O)[C@H]1O | A1 receptor (Rattus norvegicus) | not satisfied |
| CC(Cc1nccs1)Nc1ncnc2c1ncn2[C@@H]1O[C@H](CO)[C@@H](O)[C@H]1O (stereo partly shown) | A1 receptor (Rattus norvegicus) | satisfied |
| Cc1csc(CNc2ncnc3c2ncn3[C@@H]2O[C@H](CO)[C@@H](O)[C@H]2O)n1 | A1 receptor (Rattus norvegicus) | not satisfied |

# input State whether 20 nM exceeds IC50 recorded for CCNC(=O)C1CC(n2cnc3c(N[C@H](CC)Cc4sccc4Cl)ncnc32)C(O)C1O (single isomer, unassigned; (-)) .
# output satisfied

# input Field: below-cutoff. Rule: recorded IC50 strictly less than 20 nM. Subject: CCNC(=O)[C@H]1C[C@@H](n2cnc3c(N[C@H](C)Cc4cccs4)ccnc32)[C@H](O)[C@@H]1O
# output satisfied

# input In the record for OC[C@H]1O[C@@H](n2cnc3c(NCCc4nc(-c5ccccc5)cs4)ncnc32)[C@H](O)[C@@H]1O , is IC50 less than 20 nM?
# output satisfied

# input # strict comparison: is reported IC50 < 20 nM? input = CCNC(=O)[C@H]1C[C@@H](n2cnc3c(N[C@H](C)Cc4ccc(Cl)s4)ncnc32)[C@H](OC(=O)OC)[C@@H]1OC(=O)OC
# output not satisfied
